Assay: Cytotoxicity against human HuH7 cells expressing E2 glycoprotein assessed as reduction of rRNA level after 5 days
Assay type: cell-based, Huh-7
parameterMeasured: CC50 at 120 h

>>> print(df.to_string())
                                   compound  observedresult
0  C[C@@]1(O)[C@H](O)[C@@H](CO)O[C@H]1n1ccc(N)nc1=O        > 300 µM

Next item in the queue.
Looking for the measured CC50 at 120 h of `Nc1ncnc2c1ncn2[C@H]1[C@H](O)[C@H](O)[C@@H](CO)C12CC2` , can you help?
> 100 µM

----------
Test system: unidentified adenovirus
Assay: Antiviral activity against Adenovirus infected in human HuH7 cells assessed as reduction of viral level by neutral red assay
Type: functional, organism-based
Conditions: Huh-7
parameterMeasured: EC50 (nM)
One number for each entry, in nM.

Looking for the measured EC50 of `Nc1ncnc2c1ncn2[C@H]1[C@H](O)[C@H](O)[C@@H](CO)C12CC2` , can you help?
3000

----------
Test: Selectivity index, ratio of CC50 for human HuH7 cells to EC50 for Adenovirus by visual assay
Format: toxicity, cell-based, Huh-7
Details: read-out: Ratio CC50/EC50
parameterMeasured: selectivity ratio
One number for each entry.

Looking for the measured selectivity ratio of `Nc1ncnc2c1ncn2[C@H]1[C@H](O)[C@H](O)[C@@H](CO)C12CC2` , can you help?
3

----------
Experiment: Selectivity index, ratio of CC50 for human HuH7 cells to EC50 for Vaccinia virus
Format: toxicity, cell-based, Huh-7
Conditions: read-out: Ratio CC50/EC50
parameterMeasured: selectivity ratio

Looking for the measured selectivity ratio of `Nc1ncnc2c1ncn2[C@H]1[C@H](O)[C@H](O)[C@@H](CO)C12CC2` , can you help?
> 7.1

----------
Test: Selectivity index, ratio of CC50 for human HuH7 cells to EC50 for Measles virus by neutral red assay
Assay type: toxicity, cell-based, Huh-7
Conditions: read-out: Ratio CC50/EC50
parameterMeasured: selectivity ratio
Answers are plain numbers.

Looking for the measured selectivity ratio of `Nc1ncnc2c1ncn2[C@H]1[C@H](O)[C@H](O)[C@@H](CO)C12CC2` , can you help?
5
